The values you see were collected from ChEMBL document CHEMBL1201862.

Readings of GI50 for the listed compounds
Test system: U-251
ASSAY_DETAILS: NCI tumour cell line growth inhibition, 48 h
Active and inactive are the calls of the source. Cut-off read from the data, not from the text of the source: active = GI50 up to about 1.1 µM and inactive = higher.
PARAMETER_MEASURED: GI50

Cc1ccc(NC(=O)CCc2nc(N)nc(N)c2-c2ccccc2)cc1C :: > 100 µM (inactive)
N=C(c1ccccc1)N1CCCCC1 :: > 100 µM (inactive)
Cn1c2ccccc2n2c(=O)c(-c3ccc(Cl)cc3)nnc12 :: > 100 µM (inactive)
Cc1ccc(S(=O)(=O)OCC23CCC(C2)C2CC23)cc1 (stereo unspecified) :: > 100 µM (inactive)
CCOC(=O)c1c(NC(=O)Nc2ccccc2)c(C(N)=O)c2n1CCCCC2 :: > 100 µM (inactive)
C=C(Br)C(C)(Cl)CCC(Br)C(C)(C)Br (stereo unspecified) :: 88.9 µM (inactive)

----------
Here, each record is paired with measured GI50 data.
System: K562
ASSAY_DETAILS: NCI tumour cell line growth inhibition, 48 h
Activity calls are given as the source filed them. Cut-off read from the data, not from the text of the source: active = GI50 up to about 1.1 µM and inactive = higher.
PARAMETER_MEASURED: GI50

CC(=O)Nc1cccc(N2C(=O)/C(=C\c3cccc(Oc4ccccc4)c3)SC2c2ccccc2)c1 (stereo not drawn) :: 25.6 µM (inactive)
COc1ccc2c(-c3cc4ccccc4o3)cc(=O)oc2c1 :: > 100 µM (inactive)
c1ccc(C(Oc2noc3ccccc23)c2ccccc2)cc1 :: 23.8 µM (inactive)
C[C@@H](NC(=O)Cn1c(Cl)nc2ccccc21)c1ccccc1 :: > 100 µM (inactive)
COC(=O)c1cc2c3c(cc(NCCN)c2[nH]1)N(C(=O)c1cc2cc(OC)c(OC)c(OC)c2[nH]1)CC3CCl (stereo not drawn) :: 0.0247 µM (active)
Cc1cn(C2CCN(CC3COC(C)(C)O3)O2)c(=O)[nH]c1=O (stereo not drawn) :: > 100 µM (inactive)
CC1=NNC(=O)C1C(CC(=O)c1c[nH]c2ccccc12)C(=O)O (stereo not drawn) :: 36.1 µM (inactive)
C=C(C)C(CC=C(C)C)Cc1c(O)cc(OC)c2c1OC(c1ccc(O)cc1O)C(O)C2=O (stereo not drawn) :: > 100 µM (inactive)
O=C(CSc1nnc(-c2ccc(/N=C\c3ccc(Cl)cc3)cc2)o1)Nc1ccc(Cl)cc1Cl :: 38 µM (inactive)
Nc1nc2c3c(ncn3CC(O)CO2)n1 (stereo not drawn) :: > 100 µM (inactive)
Nc1ccn(C2OC(CO)C(O)C2(F)F)c(=O)n1 (stereo not drawn) :: 0.325 µM (active)
COc1ccc(O)cc1C=O :: 33.9 µM (inactive)
COc1cc(CNc2c3ccccc3nc3ccccc23)cc(OC)c1OC :: 1.32 µM (inactive)
O=C1CC2OCC=C3CN4CCC56c7ccccc7N1C5C2C3CC46O (stereo not drawn) :: > 100 µM (inactive)
CCCOc1ccc(/C=C/C2=[N+](CCO)CCO2)cc1 :: > 100 µM (inactive)
COc1cccc([C@H]2CC(=O)c3cc4c(cc3N2)OCO4)c1 :: 1.3 µM (inactive)
O=C(N/C(=C\c1ccc(/C=C(\NC(=O)c2ccccc2)c2nc3c(O)nc(S)nc3[nH]2)cc1)c1nc2c(O)nc(S)nc2[nH]1)c1ccccc1 :: 30.3 µM (inactive)
N#CCCN(CCC#N)c1ccc(/C=C2\N=C(COc3ccc(Cl)cc3Cl)OC2=O)cc1 :: > 100 µM (inactive)
CC(C)=CC1CC(=O)C1(C)Sc1ccccc1 (stereo not drawn) :: 21.9 µM (inactive)
O=C(c1ccccc1)c1sc2c(=O)c(C(=O)c3ccccc3)c(C(=O)c3ccccc3)sc2c(=O)c1C(=O)c1ccccc1 :: 15.9 µM (inactive)
O/N=C1/CCCCC1NO (stereo not drawn) :: > 100 µM (inactive)
COc1c2ccoc2nc2c(OC)c(OCC(O)C(C)(C)O)ccc12 (stereo not drawn) :: > 100 µM (inactive)
CC(=O)O/N=C/c1ncccc1CO :: > 100 µM (inactive)
